# system: recombinant eIF4E (Homo sapiens (Human), UniProt P06730)
# Sequence (P06730 whole entry): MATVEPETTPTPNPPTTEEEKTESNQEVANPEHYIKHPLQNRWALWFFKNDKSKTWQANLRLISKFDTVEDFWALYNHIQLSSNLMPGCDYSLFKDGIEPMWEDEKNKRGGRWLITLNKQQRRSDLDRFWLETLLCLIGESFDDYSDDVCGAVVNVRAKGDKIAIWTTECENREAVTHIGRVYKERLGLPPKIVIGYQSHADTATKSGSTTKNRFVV
# assay.overview: Fluorescence polarization competition assay for eIF4E binding potency
# experimental.setup: fluorescence polarization competition, 75 nM recombinant eIF4E, 20 nM EDA-m7GDP-ATTO-550; IC50 class; read-out: elF4E FP
test.readout: IC50

[[record]]
molecule = "Cc1cc(-c2cc(Cl)ccc2OCCn2c(C)nc3cc(C(F)(F)F)cc(C#N)c3c2=O)cc(C(=O)O)n1"
test_readout = "IC50"
result = "50 to 1000 nM"

[[record]]
molecule = "Cc1cnc(-c2nc3c(=O)n(CCOc4ccc(Cl)cc4-c4cc(C)nc5c(C(=O)O)csc45)c(C)nc3cc2C(F)(F)F)cn1"
test_readout = "IC50"
result = "< 50 nM"

[[record]]
molecule = "Cc1cc(-c2cc(Cl)ccc2OCCn2c(C)nc3cc(Cl)c(N4CC(C)(CO)C4)c(C#N)c3c2=O)c2scc(C(=O)O)c2n1"
test_readout = "IC50"
result = "< 50 nM"

[[record]]
molecule = "Cc1cc(-c2cc(Cl)ccc2OCCn2c(C)nc3cc(Cl)c(Nc4cccnc4)c(C#N)c3c2=O)c2scc(C(=O)O)c2n1"
test_readout = "IC50"
result = "< 50 nM"

[[record]]
molecule = "Cc1nc2cc(CN(C)C)c(OC(F)F)c(C#N)c2c(=O)n1CC#Cc1ccc(Cl)cc1-c1ccnc2c(C(=O)O)csc12"
test_readout = "IC50"
result = "< 50 nM"

[[record]]
molecule = "Cc1nc2cnc(N(C)C3CCN(CC4CC(OC(F)F)C4)CC3)c(C#N)c2c(=O)n1CC#Cc1ccc(Cl)cc1-c1ccnc2c(C(=O)O)csc12 (centres unmarked)"
test_readout = "IC50"
result = "< 50 nM"

[[record]]
molecule = "Cc1c(CCOc2ccc(Cl)cc2-c2ccnc3c(C(=O)O)csc23)c(=O)c2c(C#N)cc(C(F)(F)F)cc2n1CCF"
test_readout = "IC50"
result = "50 to 1000 nM"

[[record]]
molecule = "Cc1ccc(C(=O)O)c2nccc(-c3cc(Cl)ccc3OCCn3cnc4cncc(C#N)c4c3=O)c12"
test_readout = "IC50"
result = "> 1000 nM"

[[record]]
molecule = "Cc1cc(-c2cc(Cl)ccc2OCCn2c(C)nc3cc(C(F)(F)F)c(N4CC(=O)C4)nc3c2=O)c2scc(C(=O)O)c2n1"
test_readout = "IC50"
result = "< 50 nM"

[[record]]
molecule = "Cc1cnc(-c2nc3c(=O)n(CCOc4ccc(Cl)cc4-c4cc(C)nc5c(C(=O)O)csc45)c(C)nc3cc2C(F)(F)F)c(C)n1"
test_readout = "IC50"
result = "< 50 nM"

[[record]]
molecule = "Cc1cc(-c2cc(Cl)ccc2OCCn2c(C)nc3cc(C(F)F)c(N4CC(F)(F)C4)c(C#N)c3c2=O)c2scc(C(=O)O)c2n1"
test_readout = "IC50"
result = "< 50 nM"

[[record]]
molecule = "Cc1cc(-c2cc(Cl)ccc2OCCn2c(C)nc3cc(C(F)(F)F)c(CC4CNC4)c(C#N)c3c2=O)c2scc(C(=O)O)c2n1"
test_readout = "IC50"
result = "< 50 nM"

[[record]]
molecule = "Cc1ccc(-c2cc(Cl)ccc2OCCn2c(C)nc3c(N(C)C)ncc(C#N)c3c2=O)c2scc(C(=O)O)c12"
test_readout = "IC50"
result = "< 50 nM"

[[record]]
molecule = "Cc1cc(-c2cc(Cl)ccc2OCCn2c(C)nc3cnc(CCN(C)C)c(C#N)c3c2=O)c2scc(C(=O)O)c2n1"
test_readout = "IC50"
result = "< 50 nM"

[[record]]
molecule = "Cc1cc(-c2cc(Cl)ccc2OCCn2c(C)nc3cc(C(F)(F)F)c(-c4cccnc4C)c(C#N)c3c2=O)c2scc(C(=O)O)c2n1"
test_readout = "IC50"
result = "50 to 1000 nM"

[[record]]
molecule = "Cc1nc2c(F)cc(F)c(C#N)c2c(=O)n1CCOc1ccc(Cl)cc1-c1ccnc2c(C(=O)O)csc12"
test_readout = "IC50"
result = "< 50 nM"

[[record]]
molecule = "Cc1nc2cnc(N3CCN(C4CC4)CC3(C)C)c(C#N)c2c(=O)n1CC#Cc1ccc(Cl)cc1-c1ccnc2c(C(=O)O)csc12"
test_readout = "IC50"
result = "< 50 nM"

[[record]]
molecule = "Cc1cc(-c2cc(Cl)ccc2OCCn2c(C)nc3cc(C(F)(F)F)c(-c4cncc(F)c4)c(C#N)c3c2=O)c2scc(C(=O)O)c2n1"
test_readout = "IC50"
result = "< 50 nM"

[[record]]
molecule = "Cc1nc2c(F)cc(Cl)c(C#N)c2c(=O)n1CCOc1ccc(Cl)cc1-c1ccnc2c(C(=O)O)csc12"
test_readout = "IC50"
result = "< 50 nM"

[[record]]
molecule = "C#Cc1c(C(=O)O)cccc1-c1cc(Cl)ccc1OCCn1c(CF)nc2cc(C#N)cc(C#N)c2c1=O"
test_readout = "IC50"
result = "< 50 nM"

[[record]]
molecule = "Cc1nc2cnc(N3CCN(CCOC(F)(F)F)CC3)c(C#N)c2c(=O)n1CC#Cc1ccc(Cl)cc1-c1ccnc2c(C(=O)O)csc12"
test_readout = "IC50"
result = "< 50 nM"

[[record]]
molecule = "Cc1nc2cc(CN(C)C)c(C(F)(F)F)c(C#N)c2c(=O)n1CC#Cc1ccc(Cl)cc1-c1ccnc2c(C(=O)O)csc12"
test_readout = "IC50"
result = "< 50 nM"

[[record]]
molecule = "Cc1nc2cnc(N(C)C3CCN(CCC(C)(F)F)CC3)c(C#N)c2c(=O)n1CC#Cc1ccc(Cl)cc1-c1ccnc2c(C(=O)O)csc12"
test_readout = "IC50"
result = "< 50 nM"

[[record]]
molecule = "COc1cncc(-c2c(C(F)(F)F)cc3nc(C)n(CCOc4ccc(Cl)cc4-c4cc(C)nc5c(C(=O)O)csc45)c(=O)c3c2C#N)c1"
test_readout = "IC50"
result = "50 to 1000 nM"

[[record]]
molecule = "Cc1cc(-c2cc(Cl)ccc2OCCn2c(C)nc3cc(C(F)(F)F)c(N4CCC(F)(F)CC4)nc3c2=O)c2scc(C(=O)O)c2n1"
test_readout = "IC50"
result = "< 50 nM"

[[record]]
molecule = "Cc1nc2cc(C(F)(F)F)c(N3CCN(C)CC3)c(C#N)c2c(=O)n1CCOc1ccc(Cl)cc1-c1ccnc2c(C(=O)O)csc12"
test_readout = "IC50"
result = "< 50 nM"

